- Tested on: Fibroblast
- protocol: Multiplex assay against human fibroblast
- Assay type: toxicity, cell-based
- conditions: 12 h, 1 µM, compound concentration 1 uM, replicate 1
Give Population Membrane Permeable-Phenotype (%) for every item shown.
Give just the number in %; leave the unit off.

Would you kindly share the measured Population Membrane Permeable-Phenotype (%) for Cl.N#Cc1ccc2[nH]cc(CCCCN3CCN(c4ccc5oc(C(N)=O)cc5c4)CC3)c2c1 [VILAZODONE HYDROCHLORIDE] ?
28

Would you kindly share the measured Population Membrane Permeable-Phenotype (%) for C=CC(=O)Nc1ccc2ncnc(Nc3ccc(OCc4cccc(F)c4)c(Cl)c3)c2c1.Cc1ccc(S(=O)(=O)O)cc1 ?
28

Would you kindly share the measured Population Membrane Permeable-Phenotype (%) for NC(=O)Nc1cc(-c2cccc(F)c2)sc1C(=O)N[C@H]1CCCNC1 ?
8

---

- System: Fibroblast
- protocol: Multiplex assay against human fibroblast
- Type: toxicity, cell-based
- conditions: 24 h, 10 µM, compound concentration 10 uM, replicate 2
Binary classification by Population Mitochondria Different-Phenotype (%), with 30% as an inclusive lower bound for Satisfied; all other cases are Not satisfied.

Entry COc1cc2nccc(Oc3ccc(NC(=O)Nc4cc(C)on4)c(Cl)c3)c2cc1OC.O : is its Population Mitochondria Different-Phenotype (%) no less than 30%?
Satisfied

Entry CN1CCN(CCOc2cc(OC3CCOCC3)c3c(Nc4c(Cl)ccc5c4OCO5)ncnc3c2)CC1 : is its Population Mitochondria Different-Phenotype (%) no less than 30%?
Satisfied

Entry COc1ncc(-c2ccc3nccc(-c4ccnnc4)c3c2)cc1NS(=O)(=O)c1ccc(F)cc1F : is its Population Mitochondria Different-Phenotype (%) no less than 30%?
Not satisfied

Entry CC[C@H](C)C(=O)O[C@H]1C[C@@H](C)C=C2C=C[C@H](C)[C@H](CC[C@@H]3C[C@@H](O)CC(=O)O3)[C@H]21 : is its Population Mitochondria Different-Phenotype (%) no less than 30%?
Not satisfied

Entry CNc1nc(NCc2ccc(NS(C)(=O)=O)cc2Cl)cc(-c2ccccn2)n1 : is its Population Mitochondria Different-Phenotype (%) no less than 30%?
Not satisfied

Entry CN1CCCC(n2nc(Cc3ccc(Cl)cc3)c3ccccc3c2=O)CC1.Cl (configuration not stated) [AZELASTINE HYDROCHLORIDE] : is its Population Mitochondria Different-Phenotype (%) no less than 30%?
Satisfied

Entry C=CC(=O)Nc1cccc(C(=O)Nc2ccc(Nc3cc(-c4[nH]c(SC)nc4C)ccn3)cc2)c1 : is its Population Mitochondria Different-Phenotype (%) no less than 30%?
Not satisfied

---

- Tested on: HEK-293T
- protocol: Multiplex assay against HEK293T
- Assay type: toxicity, cell-based
- conditions: human, 12 h, 10 µM, compound concentration 10 uM, replicate 1
Hi! Could you tag entries with Population Membrane Permeable-Phenotype (%) below 1% as YES, and those at or above as NO? Much appreciated.

Does the reported Population Membrane Permeable-Phenotype (%) of the following compound sit strictly below 1%? CN(C)C(=O)/C(C#N)=C/c1ccc(-c2nc3cnc4[nH]ccc4c3n2C2CCCCC2)o1
NO

Does the reported Population Membrane Permeable-Phenotype (%) of the following compound sit strictly below 1%? COc1ncc(-c2ccc3nccc(-c4ccnnc4)c3c2)cc1NS(=O)(=O)c1ccc(F)cc1F
YES

Does the reported Population Membrane Permeable-Phenotype (%) of the following compound sit strictly below 1%? OC1(c2ccc(Cl)cc2)CCN(Cc2c[nH]c3ccccc23)CC1
NO

Does the reported Population Membrane Permeable-Phenotype (%) of the following compound sit strictly below 1%? Cc1c(-c2ccc(O)cc2)n(Cc2ccc(OCCN3CCCCCC3)cc2)c2ccc(O)cc12
YES

Does the reported Population Membrane Permeable-Phenotype (%) of the following compound sit strictly below 1%? CN1CCC[C@@H]1CCO[C@](C)(c1ccccc1)c1ccc(Cl)cc1.O=C(O)/C=C/C(=O)O [CLEMASTINE FUMARATE]
NO

Does the reported Population Membrane Permeable-Phenotype (%) of the following compound sit strictly below 1%? CN1CCN(CCOc2cc(OC3CCOCC3)c3c(Nc4c(Cl)ccc5c4OCO5)ncnc3c2)CC1
NO

Does the reported Population Membrane Permeable-Phenotype (%) of the following compound sit strictly below 1%? c1cn2cc(-c3ccc4cn[nH]c4c3)nc(Nc3ccc(N4CCOCC4)cc3)c2n1
NO

Does the reported Population Membrane Permeable-Phenotype (%) of the following compound sit strictly below 1%? C[C@@H](NCCCc1cccc(C(F)(F)F)c1)c1cccc2ccccc12.Cl [CINACALCET HYDROCHLORIDE]
YES

Does the reported Population Membrane Permeable-Phenotype (%) of the following compound sit strictly below 1%? Cc1nc(-c2ccc(-c3ccc(C(=O)N4CCc5cc6c(cc54)C4(CCN(C)CC4)CO6)cc3)c(C)c2)no1
YES

Does the reported Population Membrane Permeable-Phenotype (%) of the following compound sit strictly below 1%? COc1cccc([C@@H](C)NCCCc2ccccc2Cl)c1.Cl [TECALCET HYDROCHLORIDE]
NO

---

Give Population Hoechst High Intensity Objects (%) for every item shown.
- System: U2OS
- protocol: Multiplex assay against U2OS
- Type: toxicity, cell-based
- conditions: human, 12 h, 1 µM, compound concentration 1 uM, replicate 2
Give just the number in %; leave the unit off.

Would you kindly share the measured Population Hoechst High Intensity Objects (%) for CN1CCN(c2ccc(OC(F)(F)F)c(Nc3ncc4c(n3)-c3c(c(C(N)=O)nn3CCO)CC4)c2)CC1 ?
14

Would you kindly share the measured Population Hoechst High Intensity Objects (%) for CN1CCCC(n2nc(Cc3ccc(Cl)cc3)c3ccccc3c2=O)CC1.Cl (centres undefined) [AZELASTINE HYDROCHLORIDE] ?
11

Would you kindly share the measured Population Hoechst High Intensity Objects (%) for C=CC(=O)Nc1cccc(C(=O)Nc2ccc(Nc3cc(-c4[nH]c(SC)nc4C)ccn3)cc2)c1 ?
14

Would you kindly share the measured Population Hoechst High Intensity Objects (%) for Cc1[nH]c(/C=C2\C(=O)Nc3ccc(S(=O)(=O)N(C)c4cccc(Cl)c4)cc32)c(C)c1C(=O)N1CCN(C)CC1 ?
12

---

- Test system: HEK-293T
- protocol: Multiplex assay against HEK293T
- Type: toxicity, cell-based
- conditions: human, 24 h, 10 µM, compound concentration 10 uM, replicate 2
outcome-measure: Total Cell Count
API doc: respond with a numeric literal and nothing else, no unit.

Would you kindly share the measured Total Cell Count for COc1cc(-n2cnc3cc(-c4ccc(Cl)cc4)sc3c2=O)ccc1OCCN1CCCC1 ?
228

Would you kindly share the measured Total Cell Count for COc1cc2nccc(Oc3ccc(NC(=O)Nc4cc(C)on4)c(Cl)c3)c2cc1OC.O ?
258

Would you kindly share the measured Total Cell Count for COc1cccc([C@@H](C)NCCCc2ccccc2Cl)c1.Cl [TECALCET HYDROCHLORIDE] ?
233

Would you kindly share the measured Total Cell Count for CN(C)C(=O)/C(C#N)=C/c1ccc(-c2nc3cnc4[nH]ccc4c3n2C2CCCCC2)o1 ?
280

Would you kindly share the measured Total Cell Count for CC(C)(O)CNc1ncc(-c2ccnc(Nc3ccnc(Cl)c3)n2)c(CC2CC2)n1 ?
208

Would you kindly share the measured Total Cell Count for CC[C@H](C)C(=O)O[C@H]1C[C@@H](C)C=C2C=C[C@H](C)[C@H](CC[C@@H]3C[C@@H](O)CC(=O)O3)[C@H]21 [LOVASTATIN] ?
320

Would you kindly share the measured Total Cell Count for OC1(c2ccc(Cl)cc2)CCN(Cc2c[nH]c3ccccc23)CC1 ?
238

Would you kindly share the measured Total Cell Count for CC(C)NCC(O)COc1ccc(CCOCC2CC2)cc1.Cl (stereo not given) [BETAXOLOL HYDROCHLORIDE] ?
321

Would you kindly share the measured Total Cell Count for Cc1[nH]c(/C=C2\C(=O)Nc3ccc(S(=O)(=O)N(C)c4cccc(Cl)c4)cc32)c(C)c1C(=O)N1CCN(C)CC1 ?
162

Would you kindly share the measured Total Cell Count for C[C@@H](NCCCc1cccc(C(F)(F)F)c1)c1cccc2ccccc12.Cl [CINACALCET HYDROCHLORIDE] ?
198

Would you kindly share the measured Total Cell Count for Cc1nc(Nc2n[nH]c3c2CN(C(=O)N[C@H](CN(C)C)c2ccccc2)C3(C)C)c2sccc2n1 [PF-03758309] ?
1130

Would you kindly share the measured Total Cell Count for Cn1cc(-c2[nH]c3cc(NC(=O)[C@H](N)C4CCCCC4)cc4c3c2C=NNC4=O)cn1 ?
175

Would you kindly share the measured Total Cell Count for CN(C)CC#Cc1ccc(OCCCc2sc(N3CCc4cccc(C(=O)Nc5nc6ccccc6s5)c4C3)nc2C(=O)O)c(F)c1 [A-1155463] ?
287

Would you kindly share the measured Total Cell Count for CN1CCN(CCOc2cc(OC3CCOCC3)c3c(Nc4c(Cl)ccc5c4OCO5)ncnc3c2)CC1 [SARACATINIB] ?
208

Would you kindly share the measured Total Cell Count for Cc1nc(-c2cn3c(n2)-c2ccc(-c4cnn(C(C)(C)C(N)=O)c4)cc2OCC3)n(C(C)C)n1 [TASELISIB] ?
2851

FYI, the data here is from ChEMBL document CHEMBL4689842.
